Data origin: paper PMC11768629

# targetUnderTest: CYP2C19 (Homo sapiens)
# Sequence (P33261 whole entry): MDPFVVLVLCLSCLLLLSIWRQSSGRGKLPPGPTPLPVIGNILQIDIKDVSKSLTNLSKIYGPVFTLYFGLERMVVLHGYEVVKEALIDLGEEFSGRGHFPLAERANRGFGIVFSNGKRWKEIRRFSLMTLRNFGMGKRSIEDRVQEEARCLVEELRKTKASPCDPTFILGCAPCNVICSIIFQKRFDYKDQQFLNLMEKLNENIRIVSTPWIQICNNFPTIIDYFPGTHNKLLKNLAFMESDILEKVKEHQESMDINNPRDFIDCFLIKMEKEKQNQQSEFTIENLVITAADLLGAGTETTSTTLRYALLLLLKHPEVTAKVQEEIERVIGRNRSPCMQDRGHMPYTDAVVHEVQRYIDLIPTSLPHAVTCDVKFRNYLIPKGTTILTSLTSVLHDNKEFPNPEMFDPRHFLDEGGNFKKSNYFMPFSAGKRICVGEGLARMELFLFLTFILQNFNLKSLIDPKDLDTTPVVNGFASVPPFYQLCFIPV
readout: IC50 (µM)

O=C1C[C@@H](c2ccccc2)Oc2cc(O)cc(O)c21 [pinocembrin] ... 4.5

----------
# targetUnderTest: hOAT3 (Homo sapiens)
# Sequence (Q8TCC7 whole entry): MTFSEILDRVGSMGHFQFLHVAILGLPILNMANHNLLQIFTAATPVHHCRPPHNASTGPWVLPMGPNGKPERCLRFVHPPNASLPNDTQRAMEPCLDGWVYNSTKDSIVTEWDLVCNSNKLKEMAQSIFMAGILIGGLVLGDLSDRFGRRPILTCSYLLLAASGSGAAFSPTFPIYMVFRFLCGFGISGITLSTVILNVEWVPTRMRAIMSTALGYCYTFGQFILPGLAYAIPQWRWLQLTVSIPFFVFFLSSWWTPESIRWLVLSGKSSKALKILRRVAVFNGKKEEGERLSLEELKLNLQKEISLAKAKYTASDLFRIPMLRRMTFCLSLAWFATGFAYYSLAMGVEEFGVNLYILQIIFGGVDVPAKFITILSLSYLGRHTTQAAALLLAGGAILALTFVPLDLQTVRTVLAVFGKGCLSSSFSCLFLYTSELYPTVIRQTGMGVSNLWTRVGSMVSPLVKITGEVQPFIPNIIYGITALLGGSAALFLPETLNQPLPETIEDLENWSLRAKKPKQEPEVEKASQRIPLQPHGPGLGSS
# experimentalProtocol: hOAT3-mediated 6-CF uptake in hOAT3-MDCK cells (inhibitory potency and kinetics)
# recordedConditions: hOAT3-MDCK cells; estimated with the Cheng–Prusoff equation
readout: Ki

O=C1C[C@@H](c2ccccc2)Oc2cc(O)cc(O)c21 ... 1300 nM

----------
# targetUnderTest: hOAT1 (Homo sapiens, UniProt Q4U2R8)
# Sequence (Q4U2R8 1-563): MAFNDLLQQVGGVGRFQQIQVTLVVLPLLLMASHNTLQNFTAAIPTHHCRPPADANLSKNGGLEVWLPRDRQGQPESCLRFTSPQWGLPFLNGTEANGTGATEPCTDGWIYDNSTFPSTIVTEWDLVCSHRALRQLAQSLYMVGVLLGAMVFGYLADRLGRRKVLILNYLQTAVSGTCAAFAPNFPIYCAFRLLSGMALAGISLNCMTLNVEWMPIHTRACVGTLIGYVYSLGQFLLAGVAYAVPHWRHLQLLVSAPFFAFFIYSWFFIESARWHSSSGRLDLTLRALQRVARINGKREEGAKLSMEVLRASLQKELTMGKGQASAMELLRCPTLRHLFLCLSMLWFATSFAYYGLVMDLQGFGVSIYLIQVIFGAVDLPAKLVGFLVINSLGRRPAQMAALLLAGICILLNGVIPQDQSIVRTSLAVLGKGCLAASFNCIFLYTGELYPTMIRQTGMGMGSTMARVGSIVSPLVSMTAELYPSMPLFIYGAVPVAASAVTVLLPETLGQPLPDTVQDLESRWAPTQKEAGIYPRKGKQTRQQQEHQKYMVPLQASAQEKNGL
# experimentalProtocol: hOAT1-mediated 6-CF uptake in hOAT1-MDCK cells (inhibitory potency and kinetics)
# recordedConditions: hOAT1-MDCK cells; 6-CF 10 µM; mean ± S.D., three experiments
pIC50: −log10 of the molar value.
readout: pIC50

O=C1C[C@@H](c2ccccc2)Oc2cc(O)cc(O)c21 ... 5.83
